B1: Tektin-4 (Homo sapiens), Q8WW24 (parent)
chain: MAQTVPPCELPCKEYDVARNTGAYTSSGLATASFRTSKYLLEEWFQNCYARYHQAFADRDQSERQRHESQQLATETQALAQRTQQDSTRTVGERLQDTHSWKSELQREMEALAAETNLLLAQKQRLERALDATEVPFSITTDNLQCRERREHPNLVRDHVETELLKEAELIRNIQELLKRTIMQAVSQIRLNREHKETCEMDWSDKMEAYNIDETCGRHHSQSTEVQAHPYSTTFQESASTPETRAKFTQDNLCRAQRERLASANLRVLVDCILRDTSEDLRLQCDAVNLAFGRRCEELEDARYKLHHHLHKTLREITDQEHNVAALKQAIKDKEAPLHVAQTRLYLRSHRPNMELCRDAAQFRLLSEVEELNMSLTALREKLLEAEQSLRNLEDIHMSLEKDIAAMTNSLFIDRQKCMAHRTRYPTILQLAGYQ
partner: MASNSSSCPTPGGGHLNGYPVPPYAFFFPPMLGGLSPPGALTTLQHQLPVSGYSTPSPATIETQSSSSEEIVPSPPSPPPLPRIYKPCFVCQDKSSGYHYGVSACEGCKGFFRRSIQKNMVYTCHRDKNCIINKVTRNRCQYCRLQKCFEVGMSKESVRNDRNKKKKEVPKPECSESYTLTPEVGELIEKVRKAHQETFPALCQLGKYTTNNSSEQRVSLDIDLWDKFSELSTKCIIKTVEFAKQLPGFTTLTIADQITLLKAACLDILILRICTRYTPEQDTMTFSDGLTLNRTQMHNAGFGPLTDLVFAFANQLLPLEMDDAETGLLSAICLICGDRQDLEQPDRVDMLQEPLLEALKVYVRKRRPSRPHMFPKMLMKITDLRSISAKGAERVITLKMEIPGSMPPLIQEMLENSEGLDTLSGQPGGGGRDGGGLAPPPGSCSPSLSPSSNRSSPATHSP

- Variants of: B1
- Condition description: with rara_human RARA
Readout label: effect of a mutation on the interaction

Data request: Can you look up the measured effect of a mutation on the interaction of `R64W` for me?
Data returned: with no effect

Data request: Can you look up the measured effect of a mutation on the interaction of `D403N` for me?
Data returned: with no effect

Data request: Can you look up the measured effect of a mutation on the interaction of `N409K` for me?
Data returned: with no effect

Data request: Can you look up the measured effect of a mutation on the interaction of `M374T` for me?
Data returned: with no effect

src = IntAct's records for PubMed 31515488
